# Tested on: 958667-338-R-J2-PDC tumor spheroids viability
# assay-comment: Anticancer human tumor 958667-338-R-J2-PDC patient-derived colon adenocarcinoma cell line growth inhibition [PI3K]
# condition-context: second compound 0.01 µM; first compound 0.0316 µM; stronger effect = lower value; spheroids with HUVEC and MSC
Catalogue of viability, T/C values
measurement-type: viability, T/C (%)

>  <compound>
CC1(C)CCC(CN2CCN(c3ccc(C(=O)NS(=O)(=O)c4ccc(NCC5CCOCC5)c([N+](=O)[O-])c4)c(Oc4cnc5[nH]ccc5c4)c3)CC2)=C(c2ccc(Cl)cc2)C1 + CC(Nc1ccc2c(c1)OCCn1cc(N3C(=O)OCC3C(F)F)nc1-2)C(N)=O

>  <measurement-type>
viability, T/C

>  <observed>
91.6

$$$$
>  <compound>
CC(C)n1nc(-c2ccc3oc(N)nc3c2)c2c(N)ncnc21 + CC(Nc1ccc2c(c1)OCCn1cc(N3C(=O)OCC3C(F)F)nc1-2)C(N)=O

>  <measurement-type>
viability, T/C

>  <observed>
71

$$$$
>  <compound>
Cn1ncnc1[C@H]1c2n[nH]c(=O)c3cc(F)cc(c23)N[C@@H]1c1ccc(F)cc1 + COc1c(OCCCN2CCOCC2)ccc2c3n(c(=NC(=O)c4cnc(N)nc4)nc12)CCN3

>  <measurement-type>
viability, T/C

>  <observed>
80.5

$$$$
>  <compound>
Cn1ncc(Cl)c1-c1cc(C(=O)NC(CN)Cc2cccc(F)c2)sc1Cl (stereo not given) + COc1c(OCCCN2CCOCC2)ccc2c3n(c(=NC(=O)c4cnc(N)nc4)nc12)CCN3

>  <measurement-type>
viability, T/C

>  <observed>
88.9

$$$$
>  <compound>
CNC(=O)c1ccc(N2C(=S)N(c3ccc(C#N)c(C(F)(F)F)c3)C(=O)C2(C)C)cc1F + COc1c(OCCCN2CCOCC2)ccc2c3n(c(=NC(=O)c4cnc(N)nc4)nc12)CCN3

>  <measurement-type>
viability, T/C

>  <observed>
81.9

$$$$

---

Reported values of viability, T/C for individual entries
# System: 958667-338-R-J2-PDC tumor spheroids viability
# assay-comment: Anticancer human tumor 958667-338-R-J2-PDC cell line growth inhibition [PI3K];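 note: spheroids exposed to compounds for seven days before readout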
# condition-context: second compound 0.01 µM; first compound 1 µM; stronger effect = lower value; spheroids with HUVEC and MSC
measurement-type: viability, T/C (%)

>  <compound>
CC1(C)CCC(Nc2ncc(C(F)(F)F)c(-c3c[nH]c4c(P(C)(C)=O)c(C#N)ccc34)n2)CN1 (stereo not drawn) + CC(Nc1ccc2c(c1)OCCn1cc(N3C(=O)OCC3C(F)F)nc1-2)C(N)=O

>  <unit-abbrev>
%

>  <observed>
63.2

$$$$
>  <compound>
C=CC(=O)N1CCN(c2nc(=O)n(-c3c(C)ccnc3C(C)C)c3nc(-c4c(O)cccc4F)c(F)cc23)C(C)C1 (stereo not drawn) + COc1c(OCCCN2CCOCC2)ccc2c3n(c(=NC(=O)c4cnc(N)nc4)nc12)CCN3

>  <unit-abbrev>
%

>  <observed>
92.6

$$$$
>  <compound>
CC(Cn1ccc(-c2ccc(C#N)c(Cl)c2)n1)NC(=O)c1cc(C(C)O)[nH]n1 (stereo not drawn) + COc1c(OCCCN2CCOCC2)ccc2c3n(c(=NC(=O)c4cnc(N)nc4)nc12)CCN3

>  <unit-abbrev>
%

>  <observed>
81.1

$$$$
